- TARGET_OF_ASSAY: recombinant human SYK (GST-hSYK fusion protein) (Homo sapiens)
- EXPERIMENTAL_DETAILS: biochemical
- REPORTED_CONDITIONS: rhSYK Activity, table after Example 43
MEASURED_PARAMETER: IC50

Just so you know, measured IC50 for [2H]C([2H])([2H])c1cc(Nc2nccc(C(F)(F)F)n2)cc(-c2cnc([C@]3(O)CC[C@H](C(=O)O)CC3)s2)c1 [Example 43-1] came out at < 100 nM

---

- TARGET_OF_ASSAY: recombinant human SYK (GST-hSYK fusion protein) (Homo sapiens)
- REPORTED_CONDITIONS: read-out: rhSYK Activity; Table 45
MEASURED_PARAMETER: IC50

Just so you know, measured IC50 for Cc1cc(Nc2nccc(C(F)(F)F)n2)cc(-c2cnc(C3(O)CCCN(C(=O)OC(C)(C)C)CC3)s2)c1 (single isomer, unassigned) came out at 100 to 1000 nM

---

Listed below: pIC50 values for each entry.
- TARGET_OF_ASSAY: recombinant human SYK (GST-hSYK fusion protein) (Homo sapiens, UniProt P43405)
- REPORTED_CONDITIONS: read-out: rhSYK Activity; Table 108A
pIC50: −log10 of the molar value.

COMPOUND	pIC50
Cc1cc(Nc2nccc(OC3CCCNCC3)n2)cc(-c2cnc(C3(O)CCC3)s2)c1 (centres unmarked) [Example 108A-10]	> 7.00

Attention now turns to another entry.
Reading of pIC50 for Cc1cc(Nc2nccc(OC3CCCNCC3)n2)cc(-c2cnc(C3(O)CCC3)s2)c1 (centres unmarked) [Example 108A-11] with recombinant human SYK (GST-hSYK fusion protein) (Homo sapiens, UniProt P43405): > 7.00

---

- TARGET_OF_ASSAY: recombinant human SYK (GST-hSYK fusion protein) (Homo sapiens, UniProt P43405)
- EXPERIMENTAL_DETAILS: biochemical
- REPORTED_CONDITIONS: rhSYK Activity, Table 33-A
Listed below: IC50 values for each entry.

Example compounds with recorded IC50:
COMPOUND	IC50
CC1(C)CC(O)(c2ncc(-c3cc(Nc4nccc(C(F)(F)F)n4)cc(C(F)F)c3)s2)CCC1C(=O)O (single isomer, unassigned) [Example 33A-57]	< 100 nM
Cc1cc(Nc2nccc(C)n2)cc(-c2cnc(C3(O)CCC(CC(=O)O)CC3)s2)c1 (stereo not shown) [Example 33A-32]	< 100 nM
CCOC(=O)[C@H]1CC[C@](O)(c2ncc(-c3cccc(Nc4nccc(C(F)(F)F)n4)c3)s2)CC1 [Example 33A-25]	< 100 nM
Cc1cc(Nc2nccc(C(C)C)n2)cc(-c2cnc([C@]3(O)CC[C@@H](C(=O)OC(C)(C)C)CC3)s2)c1 [Example 33A-29]	100 to 1000 nM

Just so you know, measured IC50 for Cc1cc(Nc2nccc(C(F)(F)F)n2)cc(-c2cnc(C3(O)CCC(C)(C(=O)O)CC3)s2)c1 (stereo not shown) [Example 33A-13] came out at < 100 nM

Just so you know, measured IC50 for CCOC(=O)CCC1CCC(O)(c2ncc(-c3cc(C)cc(Nc4nccc(C(F)(F)F)n4)c3)s2)CC1 (stereo not shown) [Example 33A-21] came out at < 100 nM

Just so you know, measured IC50 for COC(=O)C1CCC(O)(c2ncc(-c3cc(COC(C)=O)cc(Nc4nccc(C(F)(F)F)n4)c3)s2)CC1(C)C (stereo not shown) [Example 33A-49] came out at < 100 nM

Just so you know, measured IC50 for Cc1cc(Nc2nccc(C(F)(F)F)n2)cc(-c2cnc(C3(O)CCC(C(=O)O)(c4ccccc4)CC3)s2)c1 (stereo not shown) [Example 33A-9] came out at < 100 nM

Just so you know, measured IC50 for COc1ccnc(Nc2cc(C)cc(-c3cnc(C4(O)CCC(C(=O)O)C(C)(C)C4)s3)c2)n1 (single isomer, unassigned) [Example 33A-72] came out at < 100 nM
